- Tested on: DLD1
- measurementNotes: cell viability (CellTiter-Glo) relative to plate median (fraction of plate median); higher = more viable cells
- experimentalParameters: 10 µM; treatment time 24 h; reporter: 7TFP
Structures can show the parent of a compound that is named as a salt.
assayMetric: cell viability
Lab note: record the figure alone, no unit after it.

If you can, please state the reported cell viability value of `Cc1cc(Nc2cc(CN3CCOCC3)c3nc(C)c(Cc4ccc(Cl)cc4F)n3n2)n[nH]1` .
0.907

Report cell viability for `C=CC(=O)Nc1cc2c(Nc3ccc(F)c(Cl)c3)ncnc2cc1OCCCN1CCOCC1` please.
0.868

Can you share its cell viability? I mean this compound: CN1CCN(c2ccc3nc(-c4c(N)c5c(F)cccc5[nH]c4=O)[nH]c3c2)CC1 [Dovitinib (TKI-258)]
0.901

Item `COc1ccc(S(=O)(=O)N(C(C)=O)c2ccccc2/C=C/c2cc[n+]([O-])cc2)cc1` has what recorded cell viability?
0.982

Sample CO[C@H]1C[C@@H]2CC[C@@H](C)[C@@](O)(O2)C(=O)C(=O)N2CCCC[C@H]2C(=O)O[C@H]([C@H](C)C[C@@H]2CC[C@@H](OP(C)(C)=O)[C@H](OC)C2)CC(=O)[C@H](C)/C=C(\C)[C@@H](O)[C@@H](OC)C(=O)[C@H](C)C[C@H](C)/C=C/C=C/C=C/1C [Deforolimus (Ridaforolimus)] — what was its cell viability?
0.979

// query cell viability value for entry `CC(C)(C)Cn1c(N)nc2ccc(-c3[nH]c(C(C)(C)C)nc3-c3ccc(F)cc3)nc21`
1.07

May I ask what cell viability has been recorded for `OCCn1cc(-c2ccc3c(c2)CC/C3=N\O)c(-c2ccncc2)n1` ?
1.05

Fill in the blank: the reported cell viability of CN1CCN(C2CCN(C(=O)Nc3cc(Oc4ccc(NC(=O)C5(C(=O)Nc6ccc(F)cc6)CC5)c(F)c4)ccn3)CC2)CC1 [Golvatinib (E7050)] is ____.
0.964

Given the entry C#Cc1cccc(Nc2ncnc3cc(OCCOC)c(OCCOC)cc23)c1 [Erlotinib HCl] , report its measured cell viability.
1.03

Value lookup for cell viability; key = `Cn1cc(-c2ccc3ncc(Cc4ccc5ncccc5c4)n3n2)cn1`
1.04

Which cell viability is reported for this compound? `Cn1c(=O)c(F)c(Nc2ccc(I)cc2F)c2c(=O)n(C[C@@H](O)CO)cnc21`
1.24

Bench note: what cell viability did `Nc1nc(Nc2ccc(S(N)(=O)=O)cc2)nn1C(=O)c1c(F)cccc1F` show?
1.01

// returns reported cell viability for input `CCN1CCN(Cc2ccc(-c3cc4c(N[C@H](C)c5ccccc5)ncnc4[nH]3)cc2)CC1`
0.92

Could you tell me which cell viability is on file for `Cc1cc(CN2CCN(c3c(Br)cnc4nc(-c5ccc(N6CCN(C)CC6)cc5)[nH]c34)CC2)no1` ?
1.09

I have this compound here, `Cc1cc(Nc2cc(N3CCN(C)CC3)nc(/C=C/c3ccccc3)n2)n[nH]1` , and I need its recorded cell viability.
0.88

Query: cell viability; subject: `COC(=O)Nc1ccc(-c2nc(N3CCOCC3)c3cnn(C4CCN(C(=O)OC)CC4)c3n2)cc1`
1.13

Which cell viability reading was recorded for the compound `CN(c1ncccc1CNc1nc(Nc2ccc3c(c2)CC(=O)N3)ncc1C(F)(F)F)S(C)(=O)=O` ?
0.974

What does the data say about its cell viability? Entry: `Nc1cccc(-c2cc3c(Oc4cccc(O)c4)ncnc3[nH]2)c1`
1.17

Which cell viability is listed for `CC(C)NC[C@@H](C(=O)N1CCN(c2ncnc3c2[C@H](C)C[C@H]3O)CC1)c1ccc(Cl)cc1` ?
0.947

Recorded cell viability of `COc1ccc(-c2ccc3c(N4CCOCC4)nc(N4C[C@@H](C)O[C@@H](C)C4)nc3n2)cc1CO` , please.
0.938

If you can, please state the reported cell viability value of `CCc1cccc(CC)c1NC(=O)N1Cc2[nH]nc(NC(=O)c3ccc(N4CCN(C)CC4)cc3)c2C1` .
1.05

So what's the measured cell viability for this one? `COc1cccc2cc(-c3nc([C@H]4CC[C@H](C(=O)O)CC4)n4ncnc(N)c34)[nH]c12`
1.03

Given Cc1ccc(NC(=O)c2ccc(CN3CCN(C)CC3)cc2)cc1Nc1nccc(-c2cccnc2)n1 [Imatinib Mesylate] , state its recorded cell viability.
0.984

// lookup cell viability for `CCCS(=O)(=O)Nc1ccc(F)c(C(=O)c2c[nH]c3ncc(-c4ccc(Cl)cc4)cc23)c1F`
1.19

# query: cell viability of entry COc1cc(CCc2cc(NC(=O)c3ccc(N4CC(C)NC(C)C4)cc3)n[nH]2)cc(OC)c1 (stereo unspecified)
0.967

So what's the measured cell viability for this one? N=C(N)NC(=N)NCCc1ccccc1 [Phenformin hydrochloride]
1.19

Return reported cell viability; argument: CCOc1cc2ncc(C#N)c(Nc3ccc(F)c(Cl)c3)c2cc1NC(=O)/C=C/CN(C)C [Pelitinib (EKB-569)]
1.02

Returns the measured cell viability for the input compound. Input: `Cn1cnc(N)c2ncnc1-2`
1.07

Entry `CCn1c(-c2nonc2N)nc2c(C#CC(C)(C)O)ncc(OC[C@H]3CCCNC3)c21` : reported cell viability = ?
0.909

Query (compound): CC1(C)CNc2cc(NC(=O)c3cccnc3NCc3ccncc3)ccc21 [Motesanib Diphosphate] ; field requested: cell viability
1.01

Which cell viability value belongs to `C[C@@H](N)[C@H]1CC[C@H](C(=O)Nc2ccncc2)CC1` ?
1.03
